Tested on: HCT-29
test description: Cytotoxicity against human HCT29 cells after 4 days by MTT assay
Type: functional, cell-based
assay context: HCT-29, 96 h

compound: Cn1c(-c2ccc(C(=O)N3CCN(C(=O)OC(C)(C)C)CC3)cc2)nc2ccccc2c1=O
relation symbol: =
IC50 (µM): 28

compound: COc1ccc(Cn2c(-c3ccc(C(=O)N4CCN(S(=O)(=O)c5ccccc5)CC4)cc3)nc3ccccc3c2=O)cc1
relation symbol: =
IC50 (µM): 8.6

compound: O=C(c1ccc(-c2nc3ccccc3c(=O)n2Cc2ccccc2)cc1)N1CCN(S(=O)(=O)c2ccccc2)CC1
relation symbol: =
IC50 (µM): 23.6

compound: CC(C)S(=O)(=O)N1CCN(C(=O)c2ccc(-c3nc4ccccc4c(=O)[nH]3)cc2)CC1
relation symbol: >
IC50 (µM): 50
